- Test system: SKOV-3
- Test: SRB colorimetric cell growth inhibition assay, SKOV-3
- Assay type: cell-based
- Assay setup: Homo sapiens, SK-OV-3, SKOV-3; GI=growth inhibition; read-out: GI50 SKOV-3
What GI50 was measured for each of the following?
The reply should be a number in nM, with the unit left off.

Documented GI50 of `COc1cc2ccn3c(c(-c4ccc(OC(=O)[C@H](C)NC(=O)OC(C)(C)C)c(OC)c4)c4c5cc(OC)c(OC(=O)[C@H](C)NC(=O)OC(C)(C)C)cc5oc(=O)c43)c2cc1OC` : 7520

Documented GI50 of `COc1cc2c(cc1OC)-c1c(-c3ccc(OC(=O)[C@H](C)N)c(OC)c3)c3c4cc(OC)c(OC(=O)[C@H](C)N)cc4oc(=O)c3n1CC2` : 3060

Documented GI50 of `COc1cc(-c2c3c4cc(OC)c(OC(=O)[C@H](C)NC(=O)OC(C)(C)C)cc4oc(=O)c3n3ccc4c(OC(=O)[C@H](C)NC(=O)OC(C)(C)C)c(OC)c(OC)cc4c23)ccc1OC(=O)[C@H](C)NC(=O)OC(C)(C)C` : 6010

Documented GI50 of `COc1cc(-c2c3n(c4c(=O)oc5cc(O)c(OC)cc5c24)CCc2cc(O)c(OC)cc2-3)ccc1O` : 2490

Documented GI50 of `COc1cc(-c2c3n(c4c(=O)oc5cc(OC(=O)[C@@H](N)Cc6ccccc6)c(OC)cc5c24)CCc2cc(OC(=O)[C@@H](N)Cc4ccccc4)c(OC)cc2-3)ccc1OC(=O)[C@@H](N)Cc1ccccc1` : 1100

Documented GI50 of `COc1cc(-c2c3c4cc(OC)c(OC(C)C)cc4oc(=O)c3n3ccc4c(OC(C)C)c(OC)c(OC)c(COS(C)(=O)=O)c4c23)ccc1OC(C)C` : 791

Documented GI50 of `COc1cc(-c2c3n(c4c(=O)oc5cc(OC(=O)[C@H](C)N)c(OC)cc5c24)CCc2c-3cc(OC)c(OC)c2OC(=O)[C@H](C)N)ccc1OC(=O)[C@H](C)N` : 4200

Documented GI50 of `COc1cc(-c2c3n(c4c(=O)oc5cc(OC(=O)[C@@H]6CCCN6)c(OC)cc5c24)CCc2c-3cc(OC)c(OC)c2OC(=O)[C@@H]2CCCN2)ccc1OC(=O)[C@@H]1CCCN1` : 2020

Documented GI50 of `COc1cc(-c2c3c4cc(OC)c(OC(=O)[C@H](C)NC(=O)OC(C)(C)C)cc4oc(=O)c3n3ccc4cc(OC(=O)[C@H](C)NC(=O)OC(C)(C)C)c(OC)cc4c23)ccc1OC(=O)[C@H](C)NC(=O)OC(C)(C)C` : 5950

Documented GI50 of `COc1cc(-c2c3n(c4c(=O)oc5cc(OC(=O)[C@H](C)N)c(OC)cc5c24)CCc2cc(OC(=O)[C@H](C)N)c(OC)cc2-3)ccc1OC(=O)[C@H](C)N` : 1240

###

- System: PANC-1
- Test: SRB colorimetric cell growth inhibition assay, PANC-1
- Assay type: cell-based
- Assay setup: PANC-1; GI=growth inhibition; read-out: GI50 PANC-1
- Method: The finality of these assays is to interrupt the growth of an “in vitro” tumor cell culture by means a continued exhibition of the cells to the sample to be testing. A colorimetric type of assay, using sulforhodamine B (SRB) reaction has been adapted for a quantitative measurement of cell growth and viability (following the technique described by P. A. Skehan, et al., J. Natl. Cancer Inst. 1990, 82, 1107-1112). […] The values for mean +/− SD of data from triplicate wells are calculated. […]
What log10 GI50 was measured for each of the following?
Hi team, quick reminder: these entries are log10 of GI50 (nM).

Documented log10 GI50 of COc1cc2ccn3c(c(-c4ccc(OC(=O)[C@@H](N)C(C)C)c(OC)c4)c4c5cc(OC)c(OC(=O)[C@@H](N)C(C)C)cc5oc(=O)c43)c2cc1OC [Compound 14] : 3.07

Documented log10 GI50 of COc1cc(-c2c3c4cc(OC)c(OC(=O)[C@H](C)N)cc4oc(=O)c3n3ccc4c(OC(=O)[C@H](C)N)c(OC)c(OC)cc4c23)ccc1OC(=O)[C@H](C)N [Compound 191] : 3.10

Documented log10 GI50 of `COc1cc2c(cc1O)oc(=O)c1c2c(-c2ccc(OC(=O)[C@H](C)N)c(OC)c2)c2c3cc(OC)c(O)cc3ccn21.Cl` : 1.40

Documented log10 GI50 of COc1cc2ccn3c(c(-c4ccc(OC(=O)[C@@H](N)Cc5ccccc5)c(OC)c4)c4c5cc(OC)c(OC(=O)[C@@H](N)Cc6ccccc6)cc5oc(=O)c43)c2cc1OC [Compound 13] : 3.39

Documented log10 GI50 of COc1cc(-c2c3c4cc(OC)c(OC(=O)[C@@H](N)C(C)C)cc4oc(=O)c3n3ccc4c(OC(=O)[C@@H](N)C(C)C)c(OC)c(OC)cc4c23)ccc1OC(=O)[C@@H](N)C(C)C [Compound 190] : 2.58

Documented log10 GI50 of COc1cc(-c2c3c4cc(OC)c(OC(=O)[C@@H](N)Cc5ccccc5)cc4oc(=O)c3n3ccc4c(OC(=O)[C@@H](N)Cc5ccccc5)c(OC)c(OC)cc4c23)ccc1OC(=O)[C@@H](N)Cc1ccccc1 [Compound 207] : 2.10

Documented log10 GI50 of COc1cc(-c2c3c4cc(OC)c(OC(=O)[C@H](C)N)cc4oc(=O)c3n3ccc4c(OC(=O)[C@H](C)N)c(OC)c(OC)cc4c23)ccc1OC(=O)[C@H](C)N [Compound 16] : 2.38

Documented log10 GI50 of `COc1cc(-c2c3n(c4c(=O)oc5cc(OC(=O)[C@@H](N)C(C)C)c(OC)cc5c24)CCc2cc(OC(=O)[C@@H](N)C(C)C)c(OC)cc2-3)ccc1OC(=O)[C@@H](N)C(C)C` : 3.32

Documented log10 GI50 of `COc1cc(-c2c3n(c4c(=O)oc5cc(OC(C)=O)c(OC)cc5c24)CCc2cc(OC)c(OC(C)=O)cc2-3)ccc1OC(C)=O` : 3.33

Documented log10 GI50 of COc1cc2ccn3c(c(-c4ccc(OC(=O)[C@@H](N)C(C)C)c(OC)c4)c4c5cc(OC)c(OC(=O)[C@@H](N)C(C)C)cc5oc(=O)c43)c2cc1OC [Compound 19] : 2.39
